Where these numbers come from: PubChem BioAssay AID1159580

Protocol description: chemical genetic growth profiling, strain panel (AID 1159580);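 also: tested at 20 µM; growth read once vehicle control cultures reached saturation at 30 °C; 1 = growth at the plate median or of vehicle wells; lower values mean less growth of the strain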
Condition info: S. cerevisiae deletion strains, growth OD, locus YLR039C, strain RIC1, stronger effect = lower value
Among all 5,500 compounds or so, about 2,000 (36%) were called active. Not shown: some 18% with an inconclusive outcome. Some of the results follow.
// reported normalized growth per item
Recorded metric: normalized growth

1) COc1ccc(C(=O)/C=C/c2ccccc2)cc1    0.792
2) CC(C)(C)C(=O)N1CCN(c2ncccc2C(F)(F)F)CC1    0.914
3) O=C1CCCc2c1c1ccccc1n2Cc1ccccc1    0.753
4) N/C(=N/OS(=O)(=O)c1ccc(Cl)cc1)c1ccc(C(F)(F)F)cc1    0.969
5) O=C1CCCc2c1nc(-c1ccccc1)n2O    1.04
6) CSC(=NCc1cccnc1)NC#N    1
7) COc1cc2c3cc1Oc1cc(ccc1O)C[C@@H]1c4c(cc(OC)c(O)c4Oc4ccc(cc4)C[C@@H]3N(C)CC2)CC[N+]1(C)C    1.09
8) CC1NC(=O)NC1=O (configuration not stated)    1.02
9) COC(=O)c1cn(Cc2ccc(C(F)(F)F)cc2)cc(F)c1=O    1.02
10) O=C1NC(c2ccccc2Cl)Nc2ccccc21 (configuration not stated)    0.973
11) Cc1onc(-c2c(Cl)cccc2Cl)c1C(=O)N1CCN(c2ncccc2C(F)(F)F)CC1    0.99
12) CN1CNc2c(c(=O)n(C)c(=O)n2C)C1    1.03
